Where do these numbers come from? They come from PubChem BioAssay.

ASSAY_TARGET: Epidermal growth factor receptor (Homo sapiens) (UniProt P00533)
Sequence (P00533 whole entry, looked up): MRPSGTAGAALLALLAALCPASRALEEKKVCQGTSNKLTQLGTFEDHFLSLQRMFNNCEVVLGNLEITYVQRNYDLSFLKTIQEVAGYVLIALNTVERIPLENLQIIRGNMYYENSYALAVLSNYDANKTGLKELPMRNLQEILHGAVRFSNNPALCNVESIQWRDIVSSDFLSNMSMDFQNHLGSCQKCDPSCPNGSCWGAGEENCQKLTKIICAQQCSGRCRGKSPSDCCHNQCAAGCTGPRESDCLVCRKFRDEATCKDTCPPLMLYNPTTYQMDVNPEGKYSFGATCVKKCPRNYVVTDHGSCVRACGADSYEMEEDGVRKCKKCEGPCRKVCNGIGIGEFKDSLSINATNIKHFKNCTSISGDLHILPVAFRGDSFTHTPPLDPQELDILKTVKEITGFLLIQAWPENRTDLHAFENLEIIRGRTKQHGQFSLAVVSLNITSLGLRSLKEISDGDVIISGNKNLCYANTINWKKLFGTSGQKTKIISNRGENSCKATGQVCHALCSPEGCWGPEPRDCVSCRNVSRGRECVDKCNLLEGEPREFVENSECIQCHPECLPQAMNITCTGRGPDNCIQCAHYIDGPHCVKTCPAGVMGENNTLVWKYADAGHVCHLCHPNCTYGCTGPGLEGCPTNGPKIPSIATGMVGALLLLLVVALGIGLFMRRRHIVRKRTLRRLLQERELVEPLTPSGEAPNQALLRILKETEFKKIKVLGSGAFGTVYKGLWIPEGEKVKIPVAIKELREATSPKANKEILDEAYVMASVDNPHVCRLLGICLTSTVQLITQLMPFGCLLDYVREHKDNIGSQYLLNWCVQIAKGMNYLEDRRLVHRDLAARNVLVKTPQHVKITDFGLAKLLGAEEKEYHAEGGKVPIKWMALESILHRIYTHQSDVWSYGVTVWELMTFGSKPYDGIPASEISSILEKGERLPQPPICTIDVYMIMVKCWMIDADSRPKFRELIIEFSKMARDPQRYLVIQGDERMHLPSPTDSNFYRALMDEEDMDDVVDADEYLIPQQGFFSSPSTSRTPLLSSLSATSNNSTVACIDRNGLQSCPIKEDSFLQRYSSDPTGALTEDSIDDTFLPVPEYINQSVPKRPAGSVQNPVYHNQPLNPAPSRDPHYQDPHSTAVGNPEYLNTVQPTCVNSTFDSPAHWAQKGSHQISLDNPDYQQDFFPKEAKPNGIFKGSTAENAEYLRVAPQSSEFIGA
ASSAY_NAME: EGFR binders on small-molecule microarrays, primary screen, biochemical, small-molecule microarray, 635 nm fluorescence (AID 1104);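 note: score merges 667 nm emission intensity with spot signal to noise over triplicate slides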
MEASUREMENT_PARAMETERS: EGFR binding, higher = more signal
Record y whenever composite z-score is at 0.06 or higher; record n when lower.

Does C=C(C)[C@@H]1CC=C(C(O)C2C=CC3C(=O)N(c4ccccc4)C(=O)C3N2Nc2ccccc2F)CC1 (stereo not given in full) have a reported composite z-score of at least 0.06? y

Does C[C@@H]1NC(=O)[C@@]23C(=O)N[C@@H](Cc4ccccc4)C2[C@H](C)[C@@]2(C)O[C@H]2C3/C=C/C/C=C\CNC(=O)[C@@H]2CCCN2C1=O (stereo not given in full) have a reported composite z-score of at least 0.06? n

Does C[N+](C)(C)CCCCCCNC(=O)[C@H]1C[C@H]2C(=O)NCC(=O)N2[C@H]1c1ccc(O)cc1 have a reported composite z-score of at least 0.06? n

Does NCCCCCCNC(=O)[C@@H]1C[C@@H]2C(=O)N[C@@H](CCCCN)C(=O)N2[C@@H]1c1cccc(OCCO)c1 have a reported composite z-score of at least 0.06? y

Does COC(=O)[C@@]1(Cc2ccc(OC)cc2)[C@H]2c3cc(C(=O)N(C)C)n(CCO)c3C[C@H]2CN1C(=O)c1ccccc1 have a reported composite z-score of at least 0.06? n

Does COc1ccc([Si](C)(C)[C@@H]2[C@@H](CCO)O[C@]3(C(=O)N(Cc4ccc(N5CCCCC5=O)cc4)c4ccccc43)[C@H]2C)cc1 have a reported composite z-score of at least 0.06? y

Does CN1C(=O)C2C=CC(C(O)c3ccccn3)N(N(c3ccccc3)c3ccccc3)C2C1=O (stereo not given) have a reported composite z-score of at least 0.06? y

Does CC(C)N1CC=CC23O[C@@H]4C=CCOC(=O)[C@@H]4[C@H]2C(=O)N(CCCO)[C@@H]3C1=O (stereo not given in full) have a reported composite z-score of at least 0.06? n

Does CCOC(=O)C1=CC[C@@H](c2ccc(OCc3ccccc3)c(OC)c2)N(S(=O)(=O)c2ccc(C)cc2)[C@H]1c1ccc(SC)cc1 have a reported composite z-score of at least 0.06? y

Does O=C1N(Cc2ccccc2)Cc2ccccc2[C@@H]2OC(c3ccc(OCCCO)cc3)=N[C@]12CCS(=O)(=O)c1ccccc1 have a reported composite z-score of at least 0.06? y

Does O=C1O[C@@H](c2ccccc2)[C@@H](c2ccccc2)N2[C@@H](c3ccc(OCCO)cc3)[C@]3(C(=O)Nc4ccccc43)[C@@H](C(=O)O)[C@H]12 have a reported composite z-score of at least 0.06? n

Does C=CCC(OC(C)=O)[C@@H]1[C@@H](N(Cc2cccc3ccccc23)C(=O)c2cccc3ccccc23)c2cc(OCCCO)ccc2N1C(=O)c1ccc(-c2ccccc2)cc1 (stereo not given in full) have a reported composite z-score of at least 0.06? y

Does COC(=O)C1=CC(CCCO)=CC(C2CC2)N(C)C=C1C(=O)OC (stereo not given) have a reported composite z-score of at least 0.06? n

Does C=CCNC(=O)[C@H]1[C@@H]2C(=O)O[C@@H](c3ccccc3)[C@@H](c3ccccc3)N2[C@@H](c2ccc(O)cc2)[C@]12C(=O)Nc1ccc(C#CC3(O)CCCCCC3)cc12 have a reported composite z-score of at least 0.06? n

Does OCCCC1=CC(c2ccc(CN3CCCC3)cc2)N(Cc2sc3ccccc3c2Cl)CC1 (stereo not given) have a reported composite z-score of at least 0.06? y

Does CCCCC(=C=CC[C@@H](O)c1ccccc1OCCO)C[C@@H](O)COCc1ccccc1 have a reported composite z-score of at least 0.06? n

Does COc1ccc(NC(=O)O[C@H]2[C@H](OC(=O)Nc3ccccc3)[C@H](OC(=O)Nc3ccccc3)[C@@H](OC)O[C@@H]2CO)cc1 have a reported composite z-score of at least 0.06? n

Does COCCCNC(=O)[C@@]1(Sc2ccc(C)cc2)CC(=O)N(C2CCCCC2)[C@@H]1c1ccc(CO)cc1 have a reported composite z-score of at least 0.06? n

Does N#Cc1ccc(C(O)C2C=CC3C(=O)N(c4ccccc4)C(=O)C3N2Nc2ccccc2)cc1 (stereo not given) have a reported composite z-score of at least 0.06? y

###

System: Human papillomavirus type 1a E7 protein (residues 1-88)
ASSAY_NAME: HPV1a E7 small-molecule binders, primary screen, biochemical, small-molecule microarray, residues 1-88, 635 nm (AID 1129)
MEASUREMENT_PARAMETERS: small-molecule microarray binding, fluorescence 635 nm; higher = more signal
Assignment: determine reported composite z-score for the given compounds.
Give the figure by itself; no unit, no explanation.

// field: composite z-score; key: [N-]=[N+]=NCc1ccccc1C[C@]1(C(N)=O)N=C(c2ccc(OCCCO)cc2)O[C@H]1c1ccccc1 ; value = 1.21

// field: composite z-score; key: CC=CC(O)C1C=CC2C(=O)N(c3ccccc3)C(=O)C2N1Nc1ccccc1F (stereo not given) ; value = 0.217

// field: composite z-score; key: COc1ccc(CCN2C(=O)[C@@]3(Cc4ccccc42)c2ccccc2C(=O)N(Cc2ccccc2OC)[C@H]3c2ccc(CO)cc2)cc1 ; value = -1.04

// field: composite z-score; key: O[C@@H](Cc1ccccc1)[C@@H](/C=C/C1CC1)N(CC#Cc1ccccc1)Cc1cccc(Cl)c1 ; value = -0.429

// field: composite z-score; key: C=C(CCCC)/C(=C/C[C@@H](OC(=O)c1ccncc1)c1ccccc1OCCO)c1cnc2ccccc2c1 ; value = 1.12

// field: composite z-score; key: C=C(COC)/C(=C/C[C@H](OC(C)=O)c1ccc(OCCO)cc1)c1cc(C(=O)OC)ccc1OC ; value = 1.07

// field: composite z-score; key: O=C1C=C(c2ccccc2)C(=O)c2ccc([C@H]3Oc4ccccc4S(=O)(=O)N4CCC[C@@H]34)cc21 ; value = -0.315

// field: composite z-score; key: C[C@]1(C(=O)NC2CC2)c2ccccc2C(=O)N(Cc2ccccc2)[C@H]1c1ccc(CO)cc1 ; value = -1.29

// field: composite z-score; key: CC(CO)N1C(=O)[C@@H]2[C@H]3C(=O)OCC=C[C@H]3OC23C=CCN(Cc2ccccc2)C(=O)[C@@H]13 (stereo not given in full) ; value = -0.696

// field: composite z-score; key: CCCCN1CC=CC23O[C@@H]4/C=C\CCC(C)OC(=O)C4[C@H]2C(=O)N(C(CO)C(C)C)[C@@H]3C1=O (stereo not given in full) ; value = -0.205

// field: composite z-score; key: CCOc1cc(C(O)C2C=CC3C(=O)N(c4ccccc4)C(=O)C3N2Nc2ccc(C#N)cc2)ccc1O (stereo not given) ; value = 0.161

// field: composite z-score; key: N#Cc1ccc(NN2C(C(O)c3ccc(F)cc3)C=CC3C(=O)N(c4ccccc4)C(=O)C32)cc1 (stereo not given) ; value = 0.57

// field: composite z-score; key: COc1ccc(CCNC(=O)[C@@H]2c3ccccc3C(=O)N(Cc3cc(C(F)(F)F)cc(C(F)(F)F)c3)[C@H]2c2ccc(CO)cc2)cc1 ; value = 0.102

// field: composite z-score; key: COC(=O)[C@@]1(Cc2ccc(OC)cc2)[C@H]2c3cc(C(=O)N(C)C)n(CCO)c3C[C@H]2CN1C(=O)c1ccccc1 ; value = 0.498

// field: composite z-score; key: C[N+](C)(C)CCCCCCNC(=O)[C@H]1C[C@H]2C(=O)N[C@@H](Cc3ccccc3)C(=O)N2[C@H]1c1ccc(O)cc1 ; value = 0.0251

// field: composite z-score; key: COc1cc2c(cc1O)C(C)N(Cc1ccc([N+](=O)[O-])o1)CC2 (stereo not given) ; value = 1.1

// field: composite z-score; key: O=C1C2C=CC(C(O)c3ccc(Br)cc3)N(Nc3ccccc3F)C2C(=O)N1c1ccccc1 (stereo not given) ; value = 0.992

// field: composite z-score; key: C=CCOC(=O)[C@H]1[C@@H]2C(=O)O[C@@H](c3ccccc3)[C@@H](c3ccccc3)N2[C@@H](c2ccc(OCCOC(=O)[C@H]3C[C@H]4C(=O)N[C@@H](CCCCNC(C)=O)C(=O)N4[C@H]3c3ccc(O)cc3)cc2)[C@]12C(=O)Nc1ccccc12 ; value = 1.12

// field: composite z-score; key: C=CCC(OC(C)=O)[C@@H]1[C@@H](N(Cc2cc3ccccc3o2)C(=O)c2ccc(C)cc2)c2cc(OCCCO)ccc2N1C(=O)Cc1ccc(OC)cc1 (stereo not given in full) ; value = -0.454

// field: composite z-score; key: [N-]=[N+]=Nc1ccccc1[C@@H]1OC(c2ccc(OCCCO)cc2)=N[C@]1(Cc1ccccc1)C(=O)NCC(O)CO (stereo not given in full) ; value = 0.95

// field: composite z-score; key: CCCC[C@@H](O)C1=C(COc2ccccc2)C[C@H]2C(=O)N(C)C(=O)[C@H]2[C@H]1CO ; value = -0.231

// field: composite z-score; key: COc1cccc(/C=C/C=O)c1 ; value = 0.203

// field: composite z-score; key: CC(C)(C)N1CC=CC23O[C@@H]4C=CCOC(=O)[C@@H]4[C@H]2C(=O)N(CCCCCCO)[C@@H]3C1=O (stereo not given in full) ; value = -0.184

// field: composite z-score; key: C=C(C)[C@@H]1CC=C(C(O)C2C=CC3C(=O)N(c4ccccc4)C(=O)C3N2Nc2ccccc2F)CC1 (stereo not given in full) ; value = 1.27

// field: composite z-score; key: COCCOC(=O)N1C(=O)[C@@]2(c3cc(C#CC4(O)CCCCCC4)ccc31)[C@H](c1ccc(O)cc1)N1[C@H](c3ccccc3)[C@H](c3ccccc3)OC(=O)[C@H]1[C@@H]2C(=O)NC[C@H](O)c1ccccc1 ; value = 1.16
